- system_tested: Human GLP-1 receptor stably expressing cells (hGLP-1R/CHO-K1 cells) (Homo sapiens, UniProt P43220)
- Construct: expressed in transfected cells
- Sequence (P43220 24-463): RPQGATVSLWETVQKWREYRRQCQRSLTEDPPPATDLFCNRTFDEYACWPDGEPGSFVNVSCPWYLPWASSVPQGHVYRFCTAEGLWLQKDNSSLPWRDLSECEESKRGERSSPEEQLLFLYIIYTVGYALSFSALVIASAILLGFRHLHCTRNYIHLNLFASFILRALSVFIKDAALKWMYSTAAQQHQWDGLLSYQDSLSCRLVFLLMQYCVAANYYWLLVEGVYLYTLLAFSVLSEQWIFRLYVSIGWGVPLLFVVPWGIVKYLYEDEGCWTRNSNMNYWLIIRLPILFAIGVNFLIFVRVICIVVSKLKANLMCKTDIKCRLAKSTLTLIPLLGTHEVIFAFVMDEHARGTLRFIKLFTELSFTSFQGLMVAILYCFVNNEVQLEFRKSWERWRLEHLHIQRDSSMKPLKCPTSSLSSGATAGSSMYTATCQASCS
- method: Measurement of GLP-1 receptor agonist activity (cAMP assay)
- Assay type: cell-based
- condition_info: CHO-K1, maximum effect; cAMP with 2 nM human GLP-1 (7-36) = 100%, DMSO only = 0%; read-out: Emax
assay_readout: Emax (%)

{"compound": "C[C@H]1c2nc(OCc3ccccc3Cl)c(C(F)F)cc2CCN1Cc1nc2ccc(C(=O)O)nc2n1C[C@@H]1CCO1", "value_measured": 106}
{"compound": "C[C@H]1c2nc(OCc3ncc(Cl)s3)c(C(F)(F)F)cc2CCN1Cc1nc2ccc(C(=O)O)cc2n1C[C@@H]1CCO1", "value_measured": 93.7}
{"compound": "C[C@H]1c2nc(OCc3ccc(OC(F)F)cc3F)c(C(F)F)cc2CCN1Cc1nc2ccc(C(=O)O)cc2n1C[C@@H]1CCO1", "value_measured": 104}
{"compound": "Cc1nonc1COc1nc2c(cc1C(F)(F)F)CCN(Cc1nc3ccc(C(=O)O)cc3n1C[C@@H]1CCO1)[C@H]2C", "value_measured": 73}
{"compound": "C[C@H]1c2nc(CCc3ccc(Cl)cc3)c(C(F)(F)F)cc2CCN1Cc1nc2ccc(C(=O)O)cc2n1C[C@@H]1CCO1", "value_measured": 102}
{"compound": "C[C@H]1c2nc(OCc3ccc(F)cc3)c(Cl)cc2CCN1Cc1nc2c(F)cc(C(=O)O)cc2n1C[C@@H]1CCO1", "value_measured": 103}
